In this section we review reported growth values for a set of molecules.
- Tested on: A549/ATCC NSCLC
- measurement_notes: NCI-60 one-dose screen, 48 h (100 = growth as untreated, 0 = no growth, -100 = all killed)
- condition_context: 10 µM unless noted
Compounds without any hit were thinned out: in the full panel of roughly 83,000, 20% have a hit. Active and inactive are the calls of the source. The calls were made as follows: active = growth percent below 10; inactive = the rest.

Example entries and their recorded answers appear below.
In [3]: df
Out[3]:
                           smiles_structure        tested_on         obs_value
0  COc1cc(/C=N/NC(=O)c2ccc(C(F)(F)F)nc2Nc2cc(Cl)ccc2C)cc(OC)c1OC  A549/ATCC NSCLC   103% (inactive)
1  COc1cnc2c(c1)C(=O)c1c-2n(CCCN2CCC(O)CC2)c(=O)c2cc(F)ccc12  A549/ATCC NSCLC   -77.5% (active)
2  CC[C@@H](C)/C=C(C)/C=C/C(O)=C1\C(=O)N[C@@H](Cc2ccc(OC(=O)[C@@](OC)(c3ccccc3)C(F)(F)F)cc2)C1=O  A549/ATCC NSCLC  97.2% (inactive)
3  Cc1n(Cc2ccc3ccccc3c2)c2ccccc2[n+]1Cc1ccc2ccccc2c1  A549/ATCC NSCLC    8.96% (active)
4  CCOc1cc(/C=C/C(=O)CC(=O)/C=C/c2ccc(OC(=O)CNc3nc4ccc(OC)cc4s3)c(OCC)c2)ccc1OC(=O)CNc1nc2ccc(OC)cc2s1  A549/ATCC NSCLC  48.2% (inactive)

Problem: Quick one: growth for C[C@]12CCC(=O)C=C1CC[C@H]1[C@@H]3C[C@@H](O)[C@](O)(C(=O)CO)[C@@]3(C)C[C@H](O)[C@@]12F ?
Result: 63.1% (inactive)

Problem: Same read-out for C/C(=C\CCc1ccoc1)CC/C=C(\C)CCCNc1ccc(F)cc1 ?
Result: 80.4% (inactive)

---

- Tested on: HCT-116 colon
- measurement_notes: NCI-60 one-dose screen, 48 h (100 = growth as untreated, 0 = no growth, -100 = all killed)
- condition_context: 10 µM unless noted
- Protocol: Growth inhibition of the HCT-116 human tumor cell line is measured as a screen for anti-cancer activity. Cells are grown in 96 well plates and exposed to the test compound for 48 hours. Compounds are tested at a single concentration, which is 10^-5 M for most compounds. The reported endpoint is percent growth (GI% or GIPRCNT), where numbers from 0 - 100% represent growth inhibition, and numbers from -100% - 0 represent cell death. For example, a value of 40 represents 60% growth inhibition. […]
About 83,000 compounds went through this panel and 20% of them were active in at least one assay; those are over-represented in the sample as a whole.
In this section we review reported growth values for a set of molecules.
Entry rule: numbers only, all in %.

Example entries and their recorded answers appear below.
molecule	tested_on	obs_value
Cc1ccc(OCC(=O)Nc2ccc(Oc3ccccc3)cc2)c([N+](=O)[O-])n1	HCT-116 colon	69.8
O=C(NCCNC(=O)Oc1cccc2ccccc12)Oc1cccc2ccccc12	HCT-116 colon	99.7
COc1ccc(C2=NN(C=O)C(c3cccc(Nc4ccnc5cc(Cl)ccc45)c3)C2)cc1 (stereo unspecified)	HCT-116 colon	12
COc1ccc(C(=O)COc2ccc(/C=C3\Oc4ccc5ccccc5c4C3=O)cc2)cc1	HCT-116 colon	85.9
COc1ccc(C2=NN(C(N)=S)C(c3ccc4c(c3)OCO4)C2)cc1 (stereo unspecified)	HCT-116 colon	1.71
O=C(N/N=C/c1ccc(Cl)cc1Cl)c1ccccc1Nc1cccc(C(F)(F)F)c1	HCT-116 colon	60.7
CC1CN(C2CCCCC2)C(=O)NC1=O (stereo unspecified)	HCT-116 colon	101
O=C1C(=O)c2c(nc3ccc(Cl)cn23)-c2ccccc21	HCT-116 colon	-95.3

Problem: Quick one: growth for CC(=O)c1ccccc1NC(=O)C(C)(c1ccccc1)c1ccccc1 ?
Result: 42.1

Problem: Same read-out for CCOc1cc(/C=C/C(=O)C(C(=O)/C=C/c2ccc(OC(=O)CNc3nc4ccccc4[nH]3)c(OCC)c2)C(=O)CNc2nc3ccccc3[nH]2)ccc1OC(=O)CNc1nc2ccccc2[nH]1 ?
Result: -61.3

Problem: Same read-out for C/C(=C\CCc1ccoc1)CC/C=C(\C)CCCC1COC(=O)C1 (stereo unspecified) ?
Result: 98.2

Problem: Same read-out for C(#Cc1ccccc1C#Cc1ccccn1)c1ccc(OCCCCCCOc2ccc(C#Cc3ccccc3C#Cc3ccccn3)cc2)cc1 ?
Result: 38.4

Problem: Same read-out for COc1cccc(/C=C2\Cc3ccccc3C2=O)c1 ?
Result: 96.3

Problem: Same read-out for O=C(O)CNC(=O)C1(N2C(=O)c3ccccc3C2=O)CCCC1 ?
Result: 103

Problem: Same read-out for OC(c1ccccc1)C(NCc1ccccc1)c1ccccc1 (stereo unspecified) ?
Result: 66.1

Problem: Same read-out for CC(NNC(=S)N1CCCCCC1)c1ccc2ccccc2n1 (stereo unspecified) ?
Result: 26.5

---

- System: MDA-MB-435 melanoma
- measurement_notes: NCI-60 one-dose screen, 48 h (100 = growth as untreated, 0 = no growth, -100 = all killed)
- condition_context: 10 µM unless noted
Compounds without any hit were thinned out: in the full panel of roughly 83,000, 20% have a hit.
In this section we review reported growth values for a set of compounds.
Entry rule: numbers only, all in %.

Example entries and their recorded answers appear below.
compound	tested_on	growth / %
CN1CCN(CCCOc2ccc3ncnc(Nc4ccc(OCc5cccc(F)c5)c(Cl)c4)c3c2)CC1	MDA-MB-435 melanoma	-88.4
COc1ccc2c(c1)[n+](=O)c(/C=C/C(=O)c1cc(OC)c(OC)c(OC)c1)c(C)n2[O-]	MDA-MB-435 melanoma	34.6
O=c1[nH]cc(Nc2cc(Cl)c3nonc3c2[N+](=O)[O-])c(=O)[nH]1	MDA-MB-435 melanoma	-41.2

// switching to the query compound
Problem: Quick one: growth for COc1cc(/C=C/C(=O)C(C(=O)/C=C/c2ccc(OC(=O)CCNC34CC5CC(CC(C5)C3)C4)c(OC)c2)C(=O)CCNC23CC4CC(CC(C4)C2)C3)ccc1OC(=O)CCNC12CC3CC(CC(C3)C1)C2 (centres undefined) ?
Result: -29.9

---

- System: MCF7 breast
- measurement_notes: NCI-60 one-dose screen, 48 h
- condition_context: 10 µM unless noted
This is part of a sample that, as a whole, favours compounds with a hit. Of some 83,000 tested, about 20% had one in any assay. Calls of active or inactive are those of the source. The calls were made as follows: active = growth percent below 10; inactive = the rest.
Entry note: the call must match one of active, inactive

Solved entries:
molecule	category
O=C(N/N=C/c1cccc(O)c1)c1ccc(C(F)(F)F)nc1Nc1cccc(C(F)(F)F)c1	active
O=C(N/N=C/c1ccc(Cl)cc1Cl)c1ccccc1Nc1cccc(C(F)(F)F)c1	inactive

Problem: Please state the recorded outcome for this molecule: Clc1ccc2[nH]cc(-c3cncn3CCc3ccccc3)c2c1
Result: inactive

Problem: Same read-out for COc1cccc(CCN2C(=O)CCC3=C2CCC3=O)c1 ?
Result: inactive

Problem: Same read-out for COc1cccc(-c2nc3cc(NC(=O)c4ccc(Cl)c(C#N)c4)ccc3o2)c1 ?
Result: active

Problem: Same read-out for CN(C)c1ccc(-n2nc3ccccc3n2)cc1 ?
Result: inactive

Problem: Same read-out for CC(C)CC1NC(=O)C(CCCN)NC(=O)C(C(C)C)NC(=O)C2CCCN2C(=O)C(Cc2ccccc2)NC(=O)C(CC(C)C)NC(=O)C(CCCN)NC(=O)C(C(C)C)NC(=O)C2CCCN2C(=O)C(Cc2ccccc2)NC1=O (stereo unspecified) ?
Result: active

Problem: Same read-out for Cc1sc2nc3c4ccccc4c(NCCCN(C)C)nn3c(=O)c2c1C ?
Result: inactive

Problem: Same read-out for CCN(CC)CCSc1ncnc2c1cnn2-c1ccc(S(N)(=O)=O)cc1 ?
Result: inactive

Problem: Same read-out for C[C@H]1O[C@@H](O[C@H]2[C@@H](O)C[C@H](O[C@H]3[C@@H](O)C[C@H](O[C@H]4CC[C@]5(C)C6CC[C@]7(C)[C@@H](C8=CC(=O)OC8)CC[C@]7(O)C6CC[C@@H]5C4)O[C@@H]3C)O[C@@H]2C)C[C@H](O)[C@@H]1O (stereo partly specified) ?
Result: active

Problem: Same read-out for Cc1[nH]ccc2cc3nc4ccccc4c3cc12 ?
Result: active

Problem: Same read-out for Cc1nn2c(/C=C3/C(=O)Nc4cc(Cl)ccc43)c(-c3ccccc3)nc2s1 ?
Result: inactive

---

- Test system: M14 melanoma
- measurement_notes: NCI-60 one-dose screen, 48 h
- condition_context: 10 µM unless noted
This is part of a sample that, as a whole, favours compounds with a hit. Of some 83,000 tested, about 20% had one in any assay. Calls of active or inactive are those of the source. The calls were made as follows: active = growth percent below 10; inactive = the rest.
Entry note: the call must match one of yes = active, no = inactive

Solved entries:
                                   compound  category
0  CCN(Cc1cccc(S(=O)(=O)[O-])c1)c1ccc(C(=C2C=CC(=[N+](CC)Cc3cccc(S(=O)(=O)O)c3)C=C2)c2ccccc2S(=O)(=O)O)cc1        no
1  O=C(CNC(=O)c1cccc2ccccc12)Nc1ccccc1Oc1ccc(O)cc1       yes
2  COc1cc(OC)c2c(c1Cl)O[C@]1(C2=O)C(OCc2ccccc2)=CC(=O)C[C@H]1C       yes

Problem: Please state the recorded outcome for this compound: O=C(c1ccccc1)C(CN1CCCCC1)c1ccccc1 (centres undefined)
Result: yes
